experiment: P. aeruginosa biofilm formation inhibitors, primary screen, strain PAO1, LB-PBS medium, absorbance 600 nm (AID 1176); further: test concentration not given here; settings: P. aeruginosa PAO1 growth/biofilm, A600, 12 h; higher = more signal
# binarize z-score: threshold 0.3 inclusive, high side label 1, low side label 0

Query: Quick check, z-score >= 0.3? COc1ccc(CC[C@H](O)c2cccc(OCC(=O)OC(C)(C)C)c2)cc1
Reply: label 1

Query: Given the entry COc1ccc([Si](C)(C)[C@H]2[C@H](CCn3cc([C@H](O)c4ccccc4)nn3)O[C@@]3(C(=O)N(c4ccccc4)c4ccccc43)[C@@H]2C)cc1 , answer whether its z-score meets or surpasses 0.3.
Reply: label 0

Query: Does z-score meet or surpass 0.3 for CCOC(=O)C[C@H]1[C@H](OC(=O)Cc2ccc3c(c2)OCO3)[C@@H](NC(=O)c2ccccc2)c2cc(OCCCO)ccc2N1C(=O)Cc1ccc(OC)cc1 ?
Reply: label 1

Query: z-score >= 0.3 for COC(=O)[C@@]1(Cc2ccc(OC)cc2)[C@H]2c3cc(C(=O)N(C)C)n(Cc4ccsc4Br)c3C[C@H]2CN1C(=O)c1ccccc1 ?
Reply: label 0

Query: Does z-score meet or surpass 0.3 for CCOC(=O)C1=CC[C@@H](c2ccccc2)N(S(=O)(=O)C[Si](C)(C)C)[C@H]1c1ccccc1 ?
Reply: label 0

Query: I'd appreciate it if you could say whether CC(C)C[C@@H]1NC(=O)[C@H]2C[C@@H](C(=O)NCCCCCNC(=O)CS)[C@@H](c3ccc(O)cc3)N2C1=O has z-score at least equal to 0.3.
Reply: label 1

Query: Answer whether z-score of [N-]=[N+]=Nc1ccccc1[C@@H]1OC(c2ccc(OCCCO)cc2)=N[C@]1(Cc1ccccc1)C(N)=O is greater than or equal to 0.3.
Reply: label 0

Query: Is z-score for CC(C)C(=C=CC[C@@H](O)c1ccc(OCCO)cc1)CCO at or above 0.3?
Reply: label 0

Query: Is reported z-score greater than or equal to 0.3 here: COCCOC(=O)N1C(=O)[C@@]2(c3cc(C#CC4(O)CCCCCC4)ccc31)[C@H](c1ccc(OCCO)cc1)N1[C@H](c3ccccc3)[C@H](c3ccccc3)OC(=O)[C@H]1[C@@H]2C(=O)N1CCCCCCC1
Reply: label 1

Query: z-score >= 0.3 for CCCCC(O)C1C=CC2C(=O)N(C)C(=O)C2N1Nc1ccccc1 (stereo unspecified) ?
Reply: label 1

Query: I'd appreciate it if you could say whether Cc1ccc(F)cc1S(=O)(=O)N[C@@H]1CCN(Cc2ccc3c(c2)OCO3)C1 has z-score at least equal to 0.3.
Reply: label 0

Query: Is reported z-score greater than or equal to 0.3 here: CCOC(=O)C1=C(C(=O)OCC)N(S(=O)(=O)CC[Si](C)(C)C)[C@H](c2ccccc2)CC1
Reply: label 0

Query: Identify whether the reported z-score of the following molecule is 0.3 or greater: COC(=O)[C@@]1(Cc2ccc(OC)cc2)[C@@H]2[C@@H](CC(=O)[C@H]2CC(=O)C(=O)N2CCCC2)CN1C(=O)c1ccccc1
Reply: label 0

Query: Can O=C1N(CCS(=O)(=O)c2ccccc2)c2ccccc2[C@@H]2OC(c3ccc(OCCCO)cc3)=N[C@]12CCS(=O)(=O)c1ccccc1 be said to have z-score at or above 0.3?
Reply: label 1

Query: Say whether CC(C)CNC(=O)[C@@H]1c2ccccc2C(=O)N(Cc2ccccc2)[C@H]1c1ccc(CO)cc1 shows z-score of 0.3 or more.
Reply: label 1

Where do the numbers come from? From PubChem BioAssay.
